%-ACC (percent mean accuracy vs nominal) values for the compounds below.
Assay: Stability in dog plasma (accelerated, freeze-thaw, frozen PK samples)
Format: in vitro ADME
Conditions: dog plasma, 4 hours 4°C
Kindly provide the numeric value in % only, without the unit symbol.

// returns reported %-ACC (percent mean accuracy vs nominal) for input Nc1ccn([C@@H]2O[C@H](COP(=O)(O)O)[C@@H](O)C2(F)F)c(=O)n1 [GEMMP, gemcitabine-5′-phosphate]
89.5

Looking for the measured %-ACC (percent mean accuracy vs nominal) of Nc1ccn([C@@H]2O[C@H](CO)[C@@H](O)C2(F)F)c(=O)n1 [GEM, gemcitabine] , can you help?
102.7

Fill in the blank: the reported %-ACC (percent mean accuracy vs nominal) of O=c1ccn([C@@H]2O[C@H](COP(=O)(O)O)[C@@H](O)C2(F)F)c(=O)[nH]1 [dFdUMP] is ____.
84.2

Turning to the following compound.
Any idea what %-ACC (percent mean accuracy vs nominal) was measured for O=c1ccn([C@@H]2O[C@H](CO)[C@@H](O)C2(F)F)c(=O)[nH]1 [dFdU, 2′,2′-difluoro-2′-deoxyuridine] ?
100.5

====

Assay: Autosampler stability of extracted mouse plasma samples at 4 °C
Format: physicochemical
Conditions: 48 hours autosampler 4 °C
measuredAttribute: %-ACC (% accuracy vs nominal) (%)
Write the value in % as a bare number.

Below, 4 molecules whose answers are already recorded.
Fill in the blank: the reported %-ACC (% accuracy vs nominal) of CCCCCN(C)CCC(O)(P(=O)(O)O)P(=O)(O)O [IB, ibandronate] is ____.
98.6

What does the data say about its %-ACC (% accuracy vs nominal)? Entry: Nc1ccn([C@@H]2O[C@H](CO)[C@@H](O)C2(F)F)c(=O)n1 [GEM, gemcitabine]
107.0

Reported %-ACC (% accuracy vs nominal) for CCCCCN(C)CCC(O)(P(=O)(O)O)P(=O)(O)OP(=O)(O)OC[C@H]1O[C@@H](n2ccc(N)nc2=O)C(F)(F)[C@@H]1O (stereo partly drawn) [GEM-IB] : what is it?
59.7

May I ask what %-ACC (% accuracy vs nominal) has been recorded for O=c1ccn([C@@H]2O[C@H](COP(=O)(O)O)[C@@H](O)C2(F)F)c(=O)[nH]1 [dFdUMP] ?
98.8

Further cases:
// lookup %-ACC (% accuracy vs nominal) for Nc1ccn([C@@H]2O[C@H](COP(=O)(O)O)[C@@H](O)C2(F)F)c(=O)n1 [GEMMP, gemcitabine-5′-phosphate]
100.4

Can you share its %-ACC (% accuracy vs nominal)? I mean this molecule: O=c1ccn([C@@H]2O[C@H](CO)[C@@H](O)C2(F)F)c(=O)[nH]1 [dFdU, 2′,2′-difluoro-2′-deoxyuridine]
103.4

====

Assay: Stability in dog plasma (accelerated, freeze-thaw, frozen PK samples)
Assay type: in vitro ADME
Settings: dog plasma PK samples re-extracted after 1.5 years at <−70 °C
measuredAttribute: %-ACC, frozen PK sample stability

Entry Nc1ccn([C@@H]2O[C@H](CO)[C@@H](O)C2(F)F)c(=O)n1 : reported %-ACC, frozen PK sample stability = ?
90.4% ± 23.9

// lookup %-ACC, frozen PK sample stability for O=c1ccn([C@@H]2O[C@H](COP(=O)(O)O)[C@@H](O)C2(F)F)c(=O)[nH]1
failed the criteria

Give the measured %-ACC, frozen PK sample stability of O=c1ccn([C@@H]2O[C@H](CO)[C@@H](O)C2(F)F)c(=O)[nH]1 .
failed the criteria

Need %-ACC, frozen PK sample stability of Nc1ccn([C@@H]2O[C@H](COP(=O)(O)O)[C@@H](O)C2(F)F)c(=O)n1 [GEMMP, gemcitabine-5′-phosphate] , thanks.
failed the criteria
